# Assay Overview: physchem
# Experimental Setup: PBS buffer with 1% dimethyl sulfoxide, pH 7.4
Observation Type: solubility (µM)
The reply should be a number in µM, with the unit left off.

Exercise: Consider the compound `CCCCC(=O)N(Cc1ccc(-c2ccccc2C(=O)O)cc1)c1ccccc1` and give its measured solubility.
Solution: 250

###

# Assay Overview: in vitro
# Experimental Setup: Sprague-Dawley, rat, liver microsomes
Observation Type: remaining at 1 h, 1000 µM (%)
The reply should be a number in %, with the unit left off.

Exercise: Consider the compound `CCCCC(=O)N(Cc1ccc(-c2ccccc2C(=O)O)cc1)c1ccccc1` and give its measured remaining at 1 h, 1000 µM.
Solution: 66
